Sourced from paper PMC9079959

Exercise: for every item that follows, state its recorded IC50.
# Test system: HCT-116 cells
# experimentalProtocol: MTT cytotoxicity assay, colorectal cancer cell line HCT-116
# Assay type: cell-based
# testSettings: Homo sapiens, HCT-116; MTT, 48 h, ± SD of 3 experiments; read-out: HCT-116 (IC50)
Numbers only, in µM.

Give IC50 for each of the items listed below.
1. O=C(c1c[nH]c2ccccc12)[C@@H]1C(c2ccc(F)cc2)[C@@H]2CCCN2[C@@]12C(=O)Nc1ccccc12 (stereo partly shown)
2. Cc1cccc(C2[C@@H](C(=O)c3c[nH]c4ccccc34)[C@]3(C(=O)Nc4ccccc43)N3CCC[C@@H]23)c1 (stereo partly shown)
3. O=C(c1c[nH]c2ccccc12)[C@@H]1C(c2ccc(Cl)cc2Cl)[C@@H]2CCCN2[C@@]12C(=O)Nc1ccccc12 (stereo partly shown)
4. O=C(c1c[nH]c2ccccc12)[C@@H]1C(c2ccco2)[C@@H]2CCCN2[C@@]12C(=O)Nc1ccccc12 (stereo partly shown)
5. O=C(c1c[nH]c2ccccc12)[C@@H]1[C@@H](c2ccc(C(F)(F)F)cc2)[C@@H]2CCCN2[C@]12C(=O)Nc1ccccc12
6. O=C(c1c[nH]c2ccccc12)[C@@H]1C(c2cccs2)[C@@H]2CCCN2[C@@]12C(=O)Nc1ccccc12 (stereo partly shown)
7. COc1cc(C2[C@@H](C(=O)c3c[nH]c4ccccc34)[C@]3(C(=O)Nc4ccccc43)N3CCC[C@@H]23)cc(OC)c1OC (stereo partly shown)

16
7
9
29
9
50
20

Give IC50 for each of the items listed below.
1. O=C(c1c[nH]c2ccccc12)[C@@H]1C(c2ccc(Br)cc2)[C@@H]2CCCN2[C@@]12C(=O)Nc1ccccc12 (stereo partly shown)
2. Cc1ccc(C2[C@@H](C(=O)c3c[nH]c4ccccc34)[C@]3(C(=O)Nc4ccccc43)N3CCC[C@@H]23)cc1 (stereo partly shown)
3. O=C(c1c[nH]c2ccccc12)[C@@H]1C(c2cccc(F)c2)[C@@H]2CCCN2[C@@]12C(=O)Nc1ccccc12 (stereo partly shown)
4. COc1ccc(C2[C@@H](C(=O)c3c[nH]c4ccccc34)[C@]3(C(=O)Nc4ccccc43)N3CCC[C@@H]23)cc1 (stereo partly shown)
5. O=C(c1c[nH]c2ccccc12)[C@@H]1C(c2ccc(Cl)cc2)[C@@H]2CCCN2[C@@]12C(=O)Nc1ccccc12 (stereo partly shown)
6. O=C(c1c[nH]c2ccccc12)[C@@H]1C(c2cccc(Br)c2)[C@@H]2CCCN2[C@@]12C(=O)Nc1ccccc12 (stereo partly shown)

[21, 21, 15, 26, 20, 9]

---

# measuredOn: phosphodiesterase 1
# testSettings: positive control
metricName: pIC50
Answers are plain numbers, as −log10 of the molar value.

Would you kindly share the measured pIC50 for O=C(O)CN(CCN(CC(=O)O)CC(=O)O)CC(=O)O [EDTA, reference compound] ? 3.56

---

# Tested on: PC-3 cells
# experimentalProtocol: MTT cytotoxicity assay, prostate cancer cell line PC-3
# Type: cell-based
# testSettings: MTT, 48 h, ± SD of 3 experiments; read-out: PC-3 (IC50)
metricName: pIC50
Numbers only, as −log10 of the molar value.

Would you kindly share the measured pIC50 for N.N.[Cl][Pt][Cl] [Cisplatin, cis-diamineplatinum(II) dichloride, reference compound] ? 5.30

---

Exercise: for every item that follows, state its recorded melting point.

Consider the following illustrative entries.
> print(dat)
                                   compound     metricname         result
1  O=C(c1c[nH]c2ccccc12)[C@@H]1C(c2ccco2)[C@@H]2CCCN2[C@@]12C(=O)Nc1ccccc12 (stereo partly drawn)  melting point  172 to 174 °C
2  COc1cc(C2[C@@H](C(=O)c3c[nH]c4ccccc34)[C@]3(C(=O)Nc4ccccc43)N3CCC[C@@H]23)cc(OC)c1OC (stereo partly drawn)  melting point  179 to 181 °C
3  O=C(c1c[nH]c2ccccc12)[C@@H]1C(c2cccc(Br)c2)[C@@H]2CCCN2[C@@]12C(=O)Nc1ccccc12 (stereo partly drawn)  melting point  110 to 112 °C

Give melting point for each of the items listed below.
1. Cc1ccc(C2[C@@H](C(=O)c3c[nH]c4ccccc34)[C@]3(C(=O)Nc4ccccc43)N3CCC[C@@H]23)cc1 (stereo partly drawn)
2. O=C(c1c[nH]c2ccccc12)[C@@H]1C(c2ccc(Cl)cc2Cl)[C@@H]2CCCN2[C@@]12C(=O)Nc1ccccc12 (stereo partly drawn)
3. O=C(c1c[nH]c2ccccc12)[C@@H]1C(c2cccc(F)c2)[C@@H]2CCCN2[C@@]12C(=O)Nc1ccccc12 (stereo partly drawn)

1: 174 to 176 °C; 2: 149 to 151 °C; 3: 149 to 151 °C

---

Exercise: for every item that follows, state its recorded melting point.

Consider the following illustrative entries.
> print(dat)
                                   compound     metricname         result
1  O=C(c1c[nH]c2ccccc12)[C@@H]1C(c2ccc(Cl)cc2)[C@@H]2CCCN2[C@@]12C(=O)Nc1ccccc12 (stereo partly shown) [4c]  melting point  165 to 167 °C
2  O=C(c1c[nH]c2ccccc12)[C@@H]1C(c2ccc(F)cc2)[C@@H]2CCCN2[C@@]12C(=O)Nc1ccccc12 (stereo partly shown) [4g]  melting point  144 to 146 °C
3  Cc1cccc(C2[C@@H](C(=O)c3c[nH]c4ccccc34)[C@]3(C(=O)Nc4ccccc43)N3CCC[C@@H]23)c1 (stereo partly shown) [4i]  melting point  141 to 143 °C

Give melting point for each of the items listed below.
1. O=C(c1c[nH]c2ccccc12)[C@@H]1C(c2cccs2)[C@@H]2CCCN2[C@@]12C(=O)Nc1ccccc12 (stereo partly shown) [4l]
2. O=C(c1c[nH]c2ccccc12)[C@@H]1[C@@H](c2ccc(C(F)(F)F)cc2)[C@@H]2CCCN2[C@]12C(=O)Nc1ccccc12 [4k]
3. O=C(c1c[nH]c2ccccc12)[C@@H]1C(c2ccc(Br)cc2)[C@@H]2CCCN2[C@@]12C(=O)Nc1ccccc12 (stereo partly shown) [4f]
4. COc1ccc(C2[C@@H](C(=O)c3c[nH]c4ccccc34)[C@]3(C(=O)Nc4ccccc43)N3CCC[C@@H]23)cc1 (stereo partly shown) [4e]

1. 157 to 159 °C
2. 153 to 155 °C
3. 101 to 102 °C
4. 122 to 124 °C

---

# Tested on: PC-3 cells
# experimentalProtocol: MTT cytotoxicity assay, prostate cancer cell line PC-3
# Format: cell-based
# testSettings: IC50 normal (VERO-B) / IC50 cancer (PC-3)
I'd appreciate it if you marked entries Yes when SI (selectivity index) is lower than 2 and No when it is not.

Completed entries (count: 4):
> print(dat)
                                   compound  categorylabel
1  O=C(c1c[nH]c2ccccc12)[C@@H]1C(c2cccs2)[C@@H]2CCCN2[C@@]12C(=O)Nc1ccccc12 (stereo partly drawn)             No
2  COc1cc(C2[C@@H](C(=O)c3c[nH]c4ccccc34)[C@]3(C(=O)Nc4ccccc43)N3CCC[C@@H]23)cc(OC)c1OC (stereo partly drawn)             No
3  Cc1ccc(C2[C@@H](C(=O)c3c[nH]c4ccccc34)[C@]3(C(=O)Nc4ccccc43)N3CCC[C@@H]23)cc1 (stereo partly drawn)            Yes
4  O=C(c1c[nH]c2ccccc12)[C@@H]1C(c2ccc(F)cc2)[C@@H]2CCCN2[C@@]12C(=O)Nc1ccccc12 (stereo partly drawn)             No

Quick check: does COc1ccc(C2[C@@H](C(=O)c3c[nH]c4ccccc34)[C@]3(C(=O)Nc4ccccc43)N3CCC[C@@H]23)cc1 (stereo partly drawn) have SI (selectivity index) under 2? Yes

---

# System: HepG2 cells
# experimentalProtocol: MTT cytotoxicity assay, hepatocellular carcinoma HepG2
# Assay type: cell-based
# testSettings: Homo sapiens, HepG2; MTT, 48 h, ± SD of 3 experiments; read-out: HepG2 (IC50)
Entry class follows IC50: Low: < 10 µM; Mid: ≥ 10 µM and < 20 µM; High: ≥ 20 µM

Band for the recorded IC50 of COc1ccc(C2[C@@H](C(=O)c3c[nH]c4ccccc34)[C@]3(C(=O)Nc4ccccc43)N3CCC[C@@H]23)cc1 (stereo partly shown) [4e] ? Mid

---

# Test system: HepG2 cells
# experimentalProtocol: MTT cytotoxicity assay, hepatocellular carcinoma HepG2
# Format: cell-based
# testSettings: Homo sapiens, HepG2; MTT, 48 h; read-out: HepG2 (IC50, μg ml^−1)
I'd appreciate it if you marked entries rule met when IC50 is lower than 6 µg/mL and rule not met when it is not.

Completed entries (count: 5):
> print(dat)
                                   molecule  categorylabel
1  O=C(c1c[nH]c2ccccc12)[C@@H]1C(c2ccc(Cl)cc2)[C@@H]2CCCN2[C@@]12C(=O)Nc1ccccc12 (stereo partly drawn)       rule met
2  O=C(c1c[nH]c2ccccc12)[C@@H]1[C@@H](c2ccc(C(F)(F)F)cc2)[C@@H]2CCCN2[C@]12C(=O)Nc1ccccc12       rule met
3  Cc1ccc(C2[C@@H](C(=O)c3c[nH]c4ccccc34)[C@]3(C(=O)Nc4ccccc43)N3CCC[C@@H]23)cc1 (stereo partly drawn)       rule met
4  O=C(c1c[nH]c2ccccc12)[C@@H]1C(c2cccc(F)c2)[C@@H]2CCCN2[C@@]12C(=O)Nc1ccccc12 (stereo partly drawn)   rule not met
5  Cc1cccc(C2[C@@H](C(=O)c3c[nH]c4ccccc34)[C@]3(C(=O)Nc4ccccc43)N3CCC[C@@H]23)c1 (stereo partly drawn)       rule met

Switching to the query record.
Quick check: does O=C(c1c[nH]c2ccccc12)[C@@H]1C(c2cccs2)[C@@H]2CCCN2[C@@]12C(=O)Nc1ccccc12 (stereo partly drawn) have IC50 under 6 µg/mL? rule not met
